Listed below: melting point values for each entry.
measurement.label: melting point

molecule="CCCc1cn(CCNC(=O)/C=C/c2ccc(O)c(O)c2)nn1 [16b]" measurement_label="melting point" result="163 to 165 °C"
molecule=O=C(C=Cc1ccccc1)NCCn1ccnn1 measurement_label="melting point" result="140 to 141 °C"
molecule=Cc1ccc(-c2cn(CCNC(=O)C=Cc3ccccc3)nn2)cc1 measurement_label="melting point" result="208 °C"
molecule="O=C(/C=C/c1ccc(O)c(O)c1)NCCn1ccnn1 [16a]" measurement_label="melting point" result="163 to 165 °C"
molecule="O=C(/C=C/c1ccc(O)c(O)c1)OCCn1cc(-c2ccccc2)nn1 [15e]" measurement_label="melting point" result="193 to 195 °C (dec.)"
molecule=O=C(C=Cc1ccccc1)OCCn1cc(C2=CCCCC2)nn1 measurement_label="melting point" result="101 to 103 °C"
molecule=O=C(C=Cc1ccccc1)NCCn1cc(C2CCCCC2)nn1 measurement_label="melting point" result="159 to 161 °C"
molecule=O=C(C=Cc1ccccc1)OCCn1cc(-c2ccccc2)nn1 measurement_label="melting point" result="122 to 123 °C"
molecule=O=C(C=Cc1ccccc1)NCCn1cc(C2=CCCCC2)nn1 measurement_label="melting point" result="170 to 171 °C"
molecule=O=Cc1ccc(-c2cn(CCOC(=O)C=Cc3ccccc3)nn2)cc1 measurement_label="melting point" result="127 to 128 °C"
